# IL23R Reporter Assay IC50 values compiled below
# EXPERIMENTAL_SYSTEM: T1, interleukin-23 receptor (IL-23R), Q5VWK5
# T1 chain: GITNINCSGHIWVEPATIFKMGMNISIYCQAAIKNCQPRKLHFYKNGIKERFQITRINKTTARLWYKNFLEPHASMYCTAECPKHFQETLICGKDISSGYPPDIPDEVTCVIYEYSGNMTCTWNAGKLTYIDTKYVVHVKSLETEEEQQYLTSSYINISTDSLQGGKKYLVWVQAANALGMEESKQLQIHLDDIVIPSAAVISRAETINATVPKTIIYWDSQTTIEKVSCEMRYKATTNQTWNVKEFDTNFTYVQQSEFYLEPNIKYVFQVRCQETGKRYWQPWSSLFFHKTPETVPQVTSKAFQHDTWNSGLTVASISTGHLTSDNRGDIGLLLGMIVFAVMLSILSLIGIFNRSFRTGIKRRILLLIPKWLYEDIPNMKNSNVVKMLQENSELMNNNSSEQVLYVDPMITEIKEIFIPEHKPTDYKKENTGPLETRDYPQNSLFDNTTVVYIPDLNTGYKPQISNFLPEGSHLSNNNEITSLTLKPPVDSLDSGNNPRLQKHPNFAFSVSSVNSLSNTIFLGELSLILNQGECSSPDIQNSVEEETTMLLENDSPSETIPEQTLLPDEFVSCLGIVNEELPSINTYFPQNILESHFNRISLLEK
# EXPERIMENT_DESCRIPTION: cell-based or functional assay
Starred links: 1 amine or outer side, 2 acyl side, 3 side chain; linkers in the order of their positions; H or OH if unused. Positions of bridges follow the written chain, without caps; N, C: chain ends. Non-standard residues stand in square brackets, D forms with d. No end group written: not given here. X1 = 3‑(7-(3-acetamidophenyl)-1H-indol-3-yl)‑2‑aminopropanoic acid, CC(=O)Nc1cccc(-c2cccc3c(CC(N[*:1])C(=O)[*:2])c[nH]c23)c1; X3 = 4‑(2-(4-(2-amino-2-carboxyethyl)phenoxy)ethyl)‑4‑methylmorpholin‑4‑ium, C[N+]1(CCOc2ccc(CC(N[*:1])C(=O)[*:2])cc2)CCOCC1; X10 = 2‑amino‑3‑(4-(2-guanidinoethoxy)phenyl)propanoic acid, N=C(N)NCCOc1ccc(CC(N[*:1])C(=O)[*:2])cc1; 2Nal(6-OH) = N[C@@H](Cc1ccc2cc(O)ccc2c1)C(=O)O; Trp(7-Me) = Cc1cccc2c(C[C@H](N)C(=O)O)c[nH]c12; AEF = NCCOc1ccc(C[C@H](N)C(=O)O)cc1; 3Pal = N[C@@H](Cc1cccnc1)C(=O)O; Pen = CC(C)(S)[C@H](N)C(=O)O; Thp = NC1(C(=O)O)CCOCC1; Sar = CNCC(=O)O

Worked examples, 2 binders total:
[Pen]NT[Trp(7-Me)]K(Ac)[Pen][AEF][2Nal(6-OH)][Thp]K(Ac)N[3Pal][Sar]K (not fully specified (bridges); ends and bridges not checked; also: K14: lipidated lysine, lipid not given here) [SEQ ID NO: 72] = < 10 nM
R[Pen]NT[X1]K(Ac)[Pen][5‑(4-(2-amino-2-carboxyethyl)phenoxy)‑N,N,N‑trimethylpentan‑1‑aminium][2‑amino‑3‑(6-hydroxynaphthalen-2-yl)propanoic acid][Thp]EN[3Pal][Sar] (not fully specified (bridges); ends and bridges not checked) [SEQ ID NO: 39] = < 10 nM

Ask: Entry K[Pen]NT[Trp(7-Me)]K(Ac)[Pen][2‑amino‑3‑(4-(2-aminoethoxy)phenyl)propanoic acid][2‑amino‑3‑(6-hydroxynaphthalen-2-yl)propanoic acid][Thp]K(Ac)N[3Pal][Sar] (not fully specified (bridges); ends and bridges not checked; also: K1: lipidated lysine, lipid not given here) [SEQ ID NO: 85] : reported IL23R Reporter Assay IC50 = ?
Reply: < 10 nM

Ask: Value lookup for IL23R Reporter Assay IC50; key = R[Pen]NT[X1]K(Ac)[Pen][X10][2‑amino‑3‑(6-hydroxynaphthalen-2-yl)propanoic acid][Thp]EN[3Pal][Sar] (ends and bridges not checked) [SEQ ID NO: 35]
Reply: < 10 nM

Ask: For R[Pen]NT[Trp(7-Me)]K(Ac)[Pen][X3][2Nal(6-OH)][Thp]EN[3Pal][Sar] (not fully specified (bridges); ends and bridges not checked) [SEQ ID NO: 77] , what is its reported IL23R Reporter Assay IC50?
Reply: < 10 nM

Ask: So what's the measured IL23R Reporter Assay IC50 for this one? R[Pen]NT[X1]K[Pen][2‑amino‑3‑(4-(2-aminoethoxy)phenyl)propanoic acid][2‑amino‑3‑(6-hydroxynaphthalen-2-yl)propanoic acid][Thp]EN[3Pal][Sar] (disulfide 2-7 (inferred); ends not checked; also: K6: lipidated lysine, lipid not given here) [SEQ ID NO: 154]
Reply: > 100 nM
